Sourced from patent US4485110A

Assay system P. rettgeri WM 16; read-out recorded as MIC.
Kindly answer with a numeric value in µg/mL, unit omitted.

[
  {
    "COMPOUND": "C/C=C1/C(=O)N2C(C(=O)O)=C(SCC)SC12 (racemic)",
    "MIC, µg/mL": 62
  }
]

Give its MIC value. Item: CC=C1C(=O)N2C(C(=O)O)=C(SCCNC(C)=O)SC12 (racemic)
25

Input C/C=C1\C(=O)N2C(C(=O)O)=C(SCC)SC12 (racemic)
62

Input CC=C1C(=O)N2C(C(=O)O)=C(Sc3ccccn3)SC12 (racemic)
25

Input C/C=C1/C(=O)N2C(C(=O)O)=C(CCC)SC12 (racemic)
62

Input C/C=C1/C(=O)N2C(C(=O)O)=CSC12 (racemic)
125

Input CC=C1C(=O)N2C(C(=O)O)=C(SCCN)SC12 (racemic)
100

* * *

test system: S. typhimurium CT 10
Property: MIC; scope: individual molecules
Kindly answer with a numeric value in µg/mL, unit omitted.

Use the examples below as a reference point.
[
  {
    "MOLECULE": "C/C=C1/C(=O)N2C(C(=O)O)=C(C)SC12 (racemic)",
    "MIC, µg/mL": 100
  },
  {
    "MOLECULE": "C/C=C1\\C(=O)N2C(C(=O)O)=C(SCC)SC12 (racemic)",
    "MIC, µg/mL": 62
  },
  {
    "MOLECULE": "CC=C1C(=O)N2C(C(=O)O)=C(SCCN)SC12 (racemic)",
    "MIC, µg/mL": 100
  }
]

Pending molecule:
Give its MIC value. Item: C/C=C1/C(=O)N2C(C(=O)O)=C(SCC)SC12 (racemic)
16

* * *

test system: S. pyogenes CN 10
Property: log10 MIC; scope: individual compounds
The common logarithm of MIC in µg/mL is what is listed.

Give its log10 MIC value. Item: C/C=C1/C(=O)N2C(C(=O)O)=C(SCC)SC12 (racemic)
0.60

Input CC=C1C(=O)N2C(C(=O)O)=C(SCCN)SC12 (racemic)
0.49

Input C/C=C1\C(=O)N2C(C(=O)O)=C(SCC)SC12 (racemic)
0.60

Input C/C=C1/C(=O)N2C(C(=O)O)=CSC12 (racemic)
0.90

Input CC=C1C(=O)N2C(C(=O)O)=C([S+]([O-])CC)SC12 (racemic)
1.10

* * *

system: E. coli JT 39 R^+; experiment: Antibacterial activity, broth MIC; type: cell-based; settings: Escherichia coli; compound alone, broth; read-out: Broth MIC
PARAMETER_MEASURED: MIC (µg/mL)
Kindly answer with a numeric value in µg/mL, unit omitted.

Use the examples below as a reference point.
[
  {
    "COMPOUND": "C/C=C1\\C(=O)N2C(C(=O)O)=C(SCC)SC12 (racemic)",
    "MIC / µg/mL": 31
  },
  {
    "COMPOUND": "CC=C1C(=O)N2C(C(=O)O)=C(SCCN)SC12 (racemic)",
    "MIC / µg/mL": 100
  }
]

Checklist item: MIC tested on E. coli JT 39 R^+, entry CC=C1C(=O)N2C(C(=O)O)=C(Sc3ccccn3)SC12 (racemic) , value?
50

Input C/C=C1/C(=O)N2C(C(=O)O)=C(CCC)SC12 (racemic)
62

* * *

tested on: P. mirabilis 977; assay: Antibacterial activity, broth MIC; type: cell-based; conditions: Proteus mirabilis, compound alone
API: label(entry) gives fulfilled if the entry's MIC is strictly smaller than 60 µg/mL; on equality or larger values it gives not fulfilled.

Worked examples, 2 compounds total:
[
  {
    "COMPOUND": "CC=C1C(=O)N2C(C(=O)O)=C(SCCN)SC12 (racemic)",
    "ASSIGNED_LABEL": "not fulfilled"
  },
  {
    "COMPOUND": "CCSC1=C(C(=O)O)N2C(=O)C(=Cc3ccccc3)C2S1 (stereo not shown)",
    "ASSIGNED_LABEL": "not fulfilled"
  }
]

API: query returns whether the compound falls strictly under 60 µg/mL in MIC. Query: C/C=C1/C(=O)N2C(C(=O)O)=C(SCC)SC12 (racemic)
fulfilled

Input C/C=C1\C(=O)N2C(C(=O)O)=C(SCC)SC12 (racemic)
not fulfilled

Input C/C=C1/C(=O)N2C(C(=O)O)=CSC12 (racemic)
not fulfilled

Input C/C=C1/C(=O)N2C(C(=O)O)=C(CCC)SC12 (racemic)
not fulfilled

Input CC=C1C(=O)N2C(C(=O)O)=C(SCCNC(C)=O)SC12 (racemic)
fulfilled

* * *

Assay system S. typhimurium CT 10; read-out recorded as MIC.
Kindly answer with a numeric value in µg/mL, unit omitted.

[
  {
    "COMPOUND": "C/C=C1/C(=O)N2C(C(=O)O)=C(CCC)SC12 (racemic) [Compound 49]",
    "MIC / µg/mL": 62
  },
  {
    "COMPOUND": "C/C=C1/C(=O)N2C(C(=O)O)=CSC12 (racemic) [Compound 40]",
    "MIC / µg/mL": 62
  },
  {
    "COMPOUND": "CC=C1C(=O)N2C(C(=O)O)=C(SCCNC(C)=O)SC12 (racemic) [Compound 59]",
    "MIC / µg/mL": 12.5
  }
]

Pending compound:
Give its MIC value. Item: CC=C1C(=O)N2C(C(=O)O)=C(Sc3ccccn3)SC12 (racemic) [Compound 99]
50

* * *

tested on: E. coli JT 39 R^+; assay: Antibacterial activity, broth MIC; format: cell-based; details: Escherichia coli; compound alone, broth; read-out: Broth MIC
Property: MIC; scope: individual molecules
Kindly answer with a numeric value in µg/mL, unit omitted.

Use the examples below as a reference point.
[
  {
    "MOLECULE": "C/C=C1/C(=O)N2C(C(=O)O)=C(SCC)SC12 (racemic)",
    "MIC, µg/mL": 16
  },
  {
    "MOLECULE": "C/C=C1/C(=O)N2C(C(=O)O)=CSC12 (racemic)",
    "MIC, µg/mL": 62
  }
]

Pending molecule:
Give its MIC value. Item: C/C=C1/C(=O)N2C(C(=O)O)=C(C)SC12 (racemic)
100

* * *

system: P. rettgeri WM 16; experiment: Antibacterial activity, broth MIC; assay type: cell-based; conditions: Providencia rettgeri, WM16, compound alone
Property: MIC; scope: individual compounds

Use the examples below as a reference point.
[
  {
    "COMPOUND": "CC=C1C(=O)N2C(C(=O)O)=C([S+]([O-])CC)SC12 (racemic)",
    "MIC": "> 100 mg/L"
  },
  {
    "COMPOUND": "C/C=C1/C(=O)N2C(C(=O)O)=C(C)SC12 (racemic)",
    "MIC": "> 100 mg/L"
  }
]

Pending compound:
Give its MIC value. Item: CCSC1=C(C(=O)O)N2C(=O)C(=Cc3ccccc3)C2S1 (stereo not drawn)
> 100 mg/L

* * *

Assay system S. pyogenes CN 10; read-out recorded as MIC.
Kindly answer with a numeric value in µg/mL, unit omitted.

Use the examples below as a reference point.
[
  {
    "MOLECULE": "CCSC1=C(C(=O)O)N2C(=O)C(=Cc3ccccc3)C2S1 (stereo not shown)",
    "RESULT_UNITS": "µg/mL",
    "MIC": 1.6
  },
  {
    "MOLECULE": "CC=C1C(=O)N2C(C(=O)O)=C(Sc3ccccn3)SC12 (racemic)",
    "RESULT_UNITS": "µg/mL",
    "MIC": 1.6
  }
]

Pending molecule:
Give its MIC value. Item: CCSC1=C(C(=O)O)N2C(=O)C(=C(C)C)C2S1 (racemic)
0.4

* * *

tested on: P. mirabilis 977; test: Antibacterial activity, broth MIC; type: cell-based; conditions: Proteus mirabilis, compound alone
PARAMETER_MEASURED: MIC (µg/mL)
Kindly answer with a numeric value in µg/mL, unit omitted.

Use the examples below as a reference point.
[
  {
    "COMPOUND": "C/C=C1/C(=O)N2C(C(=O)O)=C(C)SC12 (racemic)",
    "ASSAYED_SYSTEM": "P. mirabilis 977",
    "MIC [µg/mL]": 100
  },
  {
    "COMPOUND": "CC=C1C(=O)N2C(C(=O)O)=C([S+]([O-])CC)SC12 (racemic)",
    "ASSAYED_SYSTEM": "P. mirabilis 977",
    "MIC [µg/mL]": 100
  }
]

Pending compound:
Give its MIC value. Item: CC=C1C(=O)N2C(C(=O)O)=C(Sc3ccccn3)SC12 (racemic)
100
